B1: Membrane-associated guanylate kinase, WW and PDZ domain-containing protein 2, residues 296 to 340; numbered along this chain, Q86UL8 (parent)
chain: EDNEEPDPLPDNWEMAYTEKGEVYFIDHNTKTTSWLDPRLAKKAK

variants of: B1; test: abundance fitness (aPCA) (normalised: wild type 0, dead -1); higher = more abundant; growth selection in yeast, the domain comes from the species named; conditions: Homo sapiens
Here the recorded abundance fitness is given for each entry.
Lab note: jot down the number only; don't add units.

mutation: P8G
abundance fitness: -0.03
--
mutation: N3W
abundance fitness: 0.059
--
mutation: D37N
abundance fitness: -0.184
--
mutation: G21M
abundance fitness: -0.152
--
mutation: D37S
abundance fitness: -0.456

Consider the additional variant presented here.
Consider P10T . Its measured abundance fitness is -0.468
